Here the recorded GI50 is given for each entry.
Tested on: A549 NSCLC
assay-info: NCI tumour cell line growth inhibition, 48 h

These recorded examples may help you get a feel for the data.
                                     smiles   result
0                                 NOCC(=O)O  49.5 µM
1           O=c1c2c(nc3n1CCS3)[nH]c1ccccc12  90.1 µM
2  COc1cc(/C=C/C(=O)CC(=O)/C=C/c2cc(OC)c(OC)c(OC)c2)cc(OC)c1OC  5.76 µM
3  Cn1c([N+](=O)[O-])cnc1/C=C1\Oc2ccccc2C1=O  1.02 µM
4  Cc1ccccc1NC(=O)N/C(N)=N/c1nc(-c2cccc([N+](=O)[O-])c2)cs1  2.39 µM

[ask] State GI50 (A549 NSCLC) of CC(C)(C#N)c1cc(Cn2cncn2)cc(C(C)(C)C#N)c1 .
[reply] 933 µM

[ask] Look up and report GI50, with A549 NSCLC as system, for Cc1cc(I)cc(CN(C)CCCN2CCSCC2)c1O
[reply] 30.7 µM

[ask] Fetch value of GI50 on A549 NSCLC for COc1cc2c(cc1OCCCOc1cc3c(cc1OC)C(=O)N1C[C@H](F)C[C@H]1C=N3)N=C[C@@H]1C[C@@H](F)CN1C2=O .
[reply] 13.6 µM

[ask] Lab note: A549 NSCLC assay, enter GI50 for O=[N+]([O-])c1cc(Cl)c(Cl)c([N+](=O)[O-])c1Cl here
[reply] 1.78 µM

[ask] Answer with GI50 of CC(=O)c1c(C)[nH]c(-c2nc3ccc(N4CCN(C)CC4)cc3[nH]2)c1-c1ccc(OCC2CCOCC2)cc1 measured for A549 NSCLC.
[reply] 0.714 µM
